- EXPERIMENTAL_DETAILS: Waters ACQUITY UPLC BEH C18, 100 × 2.1 mm, 1.7 µm, 40 °C, 0.3 to 0.4 mL/min, estimated dead time 0.63 min; A: water + 0.1% formic acid; B: methanol + 0.1% formic acid; gradient (min/%B) 0/0.5 0.1/0.5 10/80 10.1/99.5 12/99.5
- CONDITION_NOTES: stereoisomer not certain
We begin with a simple list: items and their reported LC retention time.

>  <COMPOUND>
CCN1CC2(COC(=O)c3ccccc3N)CCC(OC)C34C5CC6C(OC)CC(O)(C5C6OC)C(O)(C(OC)C23)C14 (centres undefined)

>  <LC retention time>
5.5 min

$$$$
>  <COMPOUND>
CC1CCC(C(C)C2CCC3C4CC(=O)C5CC(O)CCC5(C)C4CCC23C)=NC1 (centres undefined)

>  <LC retention time>
4.95 min

$$$$
>  <COMPOUND>
O=c1cc(-c2ccc(O)c(O)c2)oc2cc(O)cc(O)c12

>  <LC retention time>
5.34 min

$$$$
>  <COMPOUND>
CC1OC(OC2C(OC3C(OC4CCC5(C)C(CCC6(C)C5CC=C5C7CC(C)(C)CC(O)C7(C)CCC56C)C4(C)CO)OC(C(=O)O)C(O)C3O)OCC(O)C2O)C(O)C(O)C1O (centres undefined)

>  <LC retention time>
7.28 min

$$$$

----------
- EXPERIMENTAL_DETAILS: Waters ACQUITY UPLC BEH C18, 100 × 2.1 mm, 1.7 µm, 40 °C, 0.3 to 0.4 mL/min, estimated dead time 0.63 min; A: water + 0.1% formic acid; B: methanol + 0.1% formic acid; gradient (min/%B) 0/0.5 0.1/0.5 10/80 10.1/99.5 12/99.5
- CONDITION_NOTES: stereoisomer not certain
Rule for this label: criterion met means LC retention time is less than 3 min; criterion not met means LC retention time is at least 3 min.

>  <MOLECULE>
CCC=CCC1C(=O)C=CC1CCCCCCCC(=O)O (stereo not given)

>  <CAT>
criterion not met

$$$$
>  <MOLECULE>
CC(C)CC(NC(=O)CN)C(=O)O (stereo not given)

>  <CAT>
criterion met

$$$$
>  <MOLECULE>
CC(CCC1(O)OC2CC3C4CC=C5CC(O)CC(OC6OC(CO)C(O)C(O)C6O)C5(C)C4CCC3(C)C2C1C)COC1OC(CO)C(O)C(O)C1OC1OC(C)C(O)C(O)C1O (stereo not given)

>  <CAT>
criterion not met

$$$$
>  <MOLECULE>
COc1ccc(C(C)=O)c(O)c1

>  <CAT>
criterion not met

$$$$
>  <MOLECULE>
O=c1c(OC2OC(CO)C(O)C(O)C2O)c(-c2cc(O)c(O)c(OC3OC(CO)C(O)C(O)C3O)c2)oc2cc(O)cc(O)c12 (stereo not given)

>  <CAT>
criterion not met

$$$$

----------
- EXPERIMENTAL_DETAILS: Waters ACQUITY UPLC BEH C18, 100 × 2.1 mm, 1.7 µm, 40 °C, 0.3 to 0.4 mL/min, estimated dead time 0.63 min; A: water + 0.1% formic acid; B: methanol + 0.1% formic acid; gradient (min/%B) 0/0.5 0.1/0.5 10/80 10.1/99.5 12/99.5
- CONDITION_NOTES: stereoisomer not certain

>  <COMPOUND>
COc1cc(-c2[o+]c3cc(O)cc(OC4OC(CO)C(O)C(O)C4O)c3cc2OC2OC(CO)C(O)C(O)C2O)cc(OC)c1O (centres undefined)

>  <UNITS_OF_MEASURE>
min

>  <LC retention time>
2.81

$$$$
>  <COMPOUND>
C=CC1C(OC2OC(CO)C(O)C(O)C2O)OC=C(C(=O)OC)C1CC=O (centres undefined)

>  <UNITS_OF_MEASURE>
min

>  <LC retention time>
3.84

$$$$
>  <COMPOUND>
CC(=O)OCC1OC(OC2C(O)COC(OC3C(O)C(C)(C)CC4C5=CCC6C7(C)CCC(OC8OC(C(=O)O)C(O)C(O)C8OC8OC(CO)C(O)C(O)C8OC8OC(CO)C(O)C(O)C8O)C(C)(CO)C7CCC6(C)C5(C)CCC43C)C2O)C(OC(C)=O)C(OC(C)=O)C1OC(C)=O (centres undefined)

>  <UNITS_OF_MEASURE>
min

>  <LC retention time>
6.26

$$$$
>  <COMPOUND>
COC(=O)C1=COC(C)C2CN3CCC4(C(=O)Nc5c4ccc(OC)c5OC)C3CC12 (centres undefined)

>  <UNITS_OF_MEASURE>
min

>  <LC retention time>
4.48

$$$$
>  <COMPOUND>
COc1cc(C=CC(=O)O)ccc1O

>  <UNITS_OF_MEASURE>
min

>  <LC retention time>
4.24

$$$$
>  <COMPOUND>
CC1=C(O)C(=O)CC(OC2CC(C)(C)CC3C4=CCC5C6(C)CCC(OC7OC(C(=O)O)C(O)C(O)C7OC7OCC(O)C(O)C7OC7OC(C)C(O)C(O)C7O)C(C)(CO)C6CCC5(C)C4(C)CCC23C)O1 (centres undefined)

>  <UNITS_OF_MEASURE>
min

>  <LC retention time>
7.79

$$$$
>  <COMPOUND>
CC1OC(OC2C(O)C(CO)OC(Oc3c(-c4ccc(O)cc4)oc4cc(O)cc(O)c4c3=O)C2O)C(O)C(O)C1O (centres undefined)

>  <UNITS_OF_MEASURE>
min

>  <LC retention time>
4.15

$$$$
>  <COMPOUND>
COc1ccccc1C=CC(=O)O

>  <UNITS_OF_MEASURE>
min

>  <LC retention time>
6.12

$$$$
>  <COMPOUND>
NC(Cc1ccccc1)C(=O)O (centres undefined)

>  <UNITS_OF_MEASURE>
min

>  <LC retention time>
2.3

$$$$
